Where do these numbers come from? They come from patent US20220363718A1.

Molecular target: T1, Biotinylated human TSLP (hTSLP(29-159)-Avi) (human, biotinylated (C-terminal Avi-tag))
T1 construct: also called thymic stromal lymphopoietin
T1 sequence (chain, as listed by the source limits assumed): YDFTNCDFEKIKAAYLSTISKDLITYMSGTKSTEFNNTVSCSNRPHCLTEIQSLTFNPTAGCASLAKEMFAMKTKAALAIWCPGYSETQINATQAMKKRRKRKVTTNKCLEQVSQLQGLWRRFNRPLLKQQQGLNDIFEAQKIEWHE
Experiment: SPR, biotinylated hTSLP on streptavidin chip, peptide injected
*1 amine or outer side, *2 acyl side, *3 side chain or, on linkers, in order; H or OH if unused. Bridges are numbered along the chain shown (N, C = ends). Where no end group is shown, it is not given here. [ ]: non-standard residue; d: D form. The star is where a group is joined. X1 = N3CH2C(O)NH(CH2CH2O)3CH2CH2(CO), [N-]=[N+]=NCC(=O)NCCOCCOCCOCCC(=O)*; TATA = O=C(CC[*:1])N1CN(C(=O)CC[*:2])CN(C(=O)CC[*:3])C1; Trp(1-Me) = Cn1cc(C[C@H](N)C(=O)O)c2ccccc21; Arg(Me2a) = CN(C)C(=N)NCCC[C@H](N)C(=O)O; Phe(4-F) = N[C@@H](Cc1ccc(F)cc1)C(=O)O; tBuAla = CC(C)(C)C[C@H](N)C(=O)O; NMeA = CN[C@@H](C)C(=O)O
REPORTED_PROPERTY: Kd (nM)
Value expressed in nM; do not type the unit.

Recorded results for 4 binders are shown here.
X1-C[NMeA][Trp(1-Me)][tBuAla]QDC[Trp(1-Me)][Arg(Me2a)]G[Phe(4-F)]C-NH2 (linker 1-7-12 via TATA; also: trimer: three peptides clicked via N-terminal azido linker to N-but-3-yn-1-yl-N2,N6-dipent-4-ynoyl-L-lysinamide core, Trimer of identical bicyclic peptides on a tri-alkyne lysinamide core (formula with F3, S9)) [Example 250]: 0.027
NRSPSECDWHWEYDCWLSC (linker 7-15-19 via TATA; not fully specified (C-terminus)) [Example 217]: 860
ACALDPWVCPQWWDCA (linker 2-9-15 via TATA; not fully specified (C-terminus)) [Example 230]: 960
ACQEHDWYCLLYQPECA (linker 2-9-16 via TATA; not fully specified (C-terminus)) [Example 231]: 1800

Given the entry CDWHWEYDCWLSCGAGESS (linker 1-9-13 via TATA; not fully specified (C-terminus)) [Example 228] , report its measured Kd. 2300

Given the entry CDWHWEYDCWLSCYDNEMS (linker 1-9-13 via TATA; not fully specified (C-terminus)) [Example 223] , report its measured Kd. 3000
